- measuredOn: T1, Dimeric Human Ang-2FD conjugated to human IgG1 (human)
- T1 construct: also called Human Ang-2FD-hFc; hAng-2FD-hFc
- assayName: competition ELISA, 16.67 nM Ab, coated hTie-2-mFc
The following binders are shown together with reported Percent Blocking of Ang-2FD Binding to Tie-2 values.
Your answer should be a plain number; it is taken to be in %.

Some solved cases for reference:
{"binder": "H2M749N (antibody, V domains shown, also called H1M749N; H1M749) VH: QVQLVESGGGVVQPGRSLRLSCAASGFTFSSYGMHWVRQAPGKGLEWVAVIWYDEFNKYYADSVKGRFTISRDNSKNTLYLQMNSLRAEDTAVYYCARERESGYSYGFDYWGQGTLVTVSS VL: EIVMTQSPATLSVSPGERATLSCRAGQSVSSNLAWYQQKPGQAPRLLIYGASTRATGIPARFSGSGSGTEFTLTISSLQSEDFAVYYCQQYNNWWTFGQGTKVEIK", "unitSymbol": "%", "endpointValue": 99.5}
{"binder": "H2M743N (antibody, V domains shown) VH: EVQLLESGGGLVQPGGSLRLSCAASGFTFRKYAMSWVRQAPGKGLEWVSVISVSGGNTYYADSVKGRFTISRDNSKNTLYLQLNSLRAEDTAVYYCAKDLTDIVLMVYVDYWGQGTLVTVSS VL: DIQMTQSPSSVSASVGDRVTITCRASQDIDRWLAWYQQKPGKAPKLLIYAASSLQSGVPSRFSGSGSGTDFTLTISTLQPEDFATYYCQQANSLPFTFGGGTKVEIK", "unitSymbol": "%", "endpointValue": 99.6}
{"binder": "H1M732N (antibody, V domains shown) VH: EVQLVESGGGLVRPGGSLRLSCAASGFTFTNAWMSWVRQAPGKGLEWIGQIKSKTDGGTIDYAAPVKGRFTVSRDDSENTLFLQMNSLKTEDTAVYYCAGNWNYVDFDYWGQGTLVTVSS VL: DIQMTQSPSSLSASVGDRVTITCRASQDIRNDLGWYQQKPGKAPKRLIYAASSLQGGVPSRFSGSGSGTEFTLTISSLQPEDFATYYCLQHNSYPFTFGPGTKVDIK", "unitSymbol": "%", "endpointValue": 97.7}
{"binder": "H2M744N (antibody, V domains shown) VH: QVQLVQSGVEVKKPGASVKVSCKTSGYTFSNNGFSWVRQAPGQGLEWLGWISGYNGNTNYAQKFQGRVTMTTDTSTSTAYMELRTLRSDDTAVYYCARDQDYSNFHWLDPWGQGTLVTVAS VL: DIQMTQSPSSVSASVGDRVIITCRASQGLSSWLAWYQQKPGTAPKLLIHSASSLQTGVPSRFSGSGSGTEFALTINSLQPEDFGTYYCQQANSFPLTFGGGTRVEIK", "unitSymbol": "%", "endpointValue": 99.5}

Let us examine a further case.
Q: Percent Blocking of Ang-2FD Binding to Tie-2 lookup needed for H2M750N (antibody, V domains shown) VH: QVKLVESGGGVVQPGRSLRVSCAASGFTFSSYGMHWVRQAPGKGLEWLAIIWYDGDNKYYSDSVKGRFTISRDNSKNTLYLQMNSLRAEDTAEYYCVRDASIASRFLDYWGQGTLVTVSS VL: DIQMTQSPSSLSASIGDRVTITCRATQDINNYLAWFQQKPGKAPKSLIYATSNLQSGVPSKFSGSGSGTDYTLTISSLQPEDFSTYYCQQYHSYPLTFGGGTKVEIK , thanks.
Ans: 99.4

Reference for the values: patent US20140112930A1
